Where do these numbers come from? They come from ChEMBL document CHEMBL5665443.

Kindly state inhibition for each of the entries shown.
molecular target: N-glycosylase/DNA lyase (Homo sapiens) (UniProt O15527); details: Compound Concentration 10.0 uM, Hit No;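 note: OGG1 cleavage of a quenched duplex DNA oligonucleotide, coupled to APE1 for strand incision, read as fluorescence at 594 nm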
Sequence (O15527 whole entry): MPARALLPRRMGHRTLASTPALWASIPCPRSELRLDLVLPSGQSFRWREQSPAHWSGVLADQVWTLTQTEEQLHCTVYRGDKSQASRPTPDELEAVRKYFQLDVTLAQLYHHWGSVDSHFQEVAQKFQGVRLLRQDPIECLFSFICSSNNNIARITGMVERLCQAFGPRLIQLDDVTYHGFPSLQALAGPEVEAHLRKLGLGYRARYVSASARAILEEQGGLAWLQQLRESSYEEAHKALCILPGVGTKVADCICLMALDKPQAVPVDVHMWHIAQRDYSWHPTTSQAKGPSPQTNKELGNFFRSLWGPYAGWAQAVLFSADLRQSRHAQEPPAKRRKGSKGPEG
Description: Inhibition of OGG1 by quantifying inhibition of OGG1-mediated cleavage and dissociation of quenched duplex DNA oligonucleotides, measured as fluorescence at 594 nm. To generate a functional strand incision and increase turn-over this assay is coupled to APE1.

### Prompt Given CC(C)(C)c1cc(C(C)(C)C)c(NC(=O)c2c[nH]c3ccccc3c2=O)cc1O , state its recorded inhibition.
### Response -6.32%

### Prompt What inhibition value was documented for this molecule, O=C(Cc1ccc(Cl)c(Cl)c1)N1CCCC[C@H]1CN1CCCC1 ?
### Response 2.1%

### Prompt Value lookup for inhibition; key = CC(C)C[C@H](NC(=O)[C@H](CC(N)=O)NC(=O)[C@@H]1CCCN1C(=O)[C@@H](N)C(C)C)C(=O)N1CCC[C@H]1C(=O)N[C@@H](CCC(N)=O)C(=O)N[C@@H](CCCNC(=N)N)C(=O)N[C@@H](Cc1ccccc1)C(N)=O
### Response -4.66%

### Prompt For the molecule shown here, Clc1ccccc1C(c1ccccc1)(c1ccccc1)n1cccn1 , give the reported inhibition.
### Response -9.77%

### Prompt inhibition lookup needed for CS(=O)(=O)NC[C@H]1CC[C@H](Nc2nc3c(s2)CCSc2ccccc2-3)CC1 , thanks.
### Response -8.83%

====

Target: Single-strand selective monofunctional uracil DNA glycosylase (Homo sapiens);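 note: enzymatic SMUG1 assay coupled with APE1, reading fluorescence at 594 nm released when a quenched double-stranded DNA oligonucleotide substrate is cleaved and separated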
Sequence (whole entry): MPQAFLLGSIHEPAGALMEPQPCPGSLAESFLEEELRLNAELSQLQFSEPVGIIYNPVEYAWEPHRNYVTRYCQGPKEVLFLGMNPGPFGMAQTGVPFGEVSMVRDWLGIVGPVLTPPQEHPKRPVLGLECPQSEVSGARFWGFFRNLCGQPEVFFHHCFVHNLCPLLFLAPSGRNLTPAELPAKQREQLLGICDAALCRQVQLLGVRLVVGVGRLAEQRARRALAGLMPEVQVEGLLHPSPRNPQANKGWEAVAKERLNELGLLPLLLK
Conditions: Compound Concentration 10.0 uM, Hit No
Description: Inhibition of SMUG1 by quantifying inhibition of SMUG1-mediated cleavage and dissociation of quenched duplex DNA oligonucleotides, measured as fluorescence at 594 nm. To generate a functional strand incision and increase turn-over this assay is coupled to APE1.
Task for the reader: assign each of the following molecules its reported inhibition.
Please reply with the bare figure in % and do not write the unit itself.

### Prompt Field request: inhibition | item: CN[C@@H]1CCc2[nH]c3ccc(C(N)=O)cc3c2C1
### Response -7.16

### Prompt // lookup inhibition for Cc1cc(C(C)(C)C)c(O)c(C)c1CC1=NCCN1
### Response -3.38

### Prompt Look at this molecule and give its reported inhibition. Cc1cc(-c2nncc3c(C(C)(C)C)c(OCc4ncnn4C)nn23)no1
### Response -0.184

### Prompt Find the recorded inhibition belonging to Cc1cccc(NC(=O)N[C@@H]2N=C(c3ccccc3)c3ccccc3N(C)C2=O)c1 and report it.
### Response -5.61

### Prompt Look at this molecule and give its reported inhibition. COc1ccc([C@@H]2Sc3ccccc3N(CCN(C)C)C(=O)[C@@H]2OC(C)=O)cc1
### Response 0.325

### Prompt Recorded inhibition for CCOC(=O)N1CCC(c2cc(O)n3nc(C)c(-c4ccc(F)cc4)c3n2)CC1 , please?
### Response 6.03

### Prompt Recorded inhibition of COC(=O)c1cc2c(cn1)[nH]c1ccccc12 , please.
### Response 2.02

### Prompt Give its inhibition value. Item: N/C(=N\C(=O)c1nc(Cl)c(N)nc1N)NCc1ccccc1
### Response 7.5

### Prompt Would you mind telling me what inhibition value was observed for CCCCCCCCc1ccc(CCC(N)(CO)CO)cc1 ?
### Response 1.32

### Prompt Consider the molecule COc1cc(OC)c(NC(=O)c2ccc(Cc3cc4c(cc3C)C(C)(C)CCC4(C)C)o2)c(OC)c1 and give its measured inhibition.
### Response -2.6

### Prompt Any idea what its inhibition is? The molecule is CCCCc1oc2ccccc2c1C(=O)c1cc(I)c(OCCN(CC)CC)c(I)c1
### Response 15.3

### Prompt Fill blank: measured inhibition of the molecule CC(C)(C(=O)O)c1ccc(C(O)CCCN2CCC(C(O)(c3ccccc3)c3ccccc3)CC2)cc1 (stereo unspecified) is ____.
### Response -3.57

### Prompt Looking for the measured inhibition of Cc1c(N2CCCC2)nc2ccc(Br)cc2c1C(=O)NC[C@H](CCC(=O)O)c1ccccc1Cl , can you help?
### Response 12.3

### Prompt Would you mind telling me what inhibition value was observed for CC(C)c1c(NC(=O)Nc2ccc(Cl)cc2)c(=O)n(-c2ccccc2)n1C ?
### Response -6.14

### Prompt Could you tell me which inhibition is on file for Cn1cc(Cl)c2c(Oc3c(F)cc(Nc4cc(Cl)nc(N)n4)cc3F)ccnc21 ?
### Response 27.1

### Prompt Would you mind telling me what inhibition value was observed for COc1nc2ccc([C@@](O)(c3ccccc3)C3CCN(C(C)=O)CC3)cc2c(Cl)c1Cc1ccc(-n2cccn2)cc1 ?
### Response 22.3

### Prompt For COc1ccc(CNC(=O)c2cc(-c3cncc(Cl)c3)cnc2-c2ccccn2)nc1OC , what is its reported inhibition?
### Response -1.29

### Prompt inhibition for O=C(O)CC1CCC2(CC1)CCN(c1cc(OC(F)(F)F)ccc1Cl)CC2 ?
### Response 4.67

### Prompt Would you mind telling me what inhibition value was observed for CC1CCN(CC[C@H]2CCCN2S(=O)(=O)c2cccc(O)c2)CC1 ?
### Response 3.5

### Prompt inhibition for CN1CC(=O)N=C1NC(=O)Nc1cccc(Cl)c1 ?
### Response -1.34

### Prompt Reported inhibition for CC1(C)CCC(C)(C)c2cc(NC(=O)c3ccc(C(=O)O)cc3)ccc21 : what is it?
### Response 7.75
